# target.under.test: Mu-type opioid receptor (Homo sapiens)
# test.protocol: Agonist activity at MOR (unknown origin) assessed as beta-arrestin2 recruitment at 0.1 uM incubated for 90 to 180 mins by chemiluminescence based microplate reader assay relative to control
# Type: functional
# measurement.parameters: time 90-180 min
The molecules listed here are annotated with their Activity.
Write the number in % without appending the unit.

                                   molecule                       target_under_test  observation_type  output_unit  observed_value
0  CC(Cc1ccco1)N/C(=N\C#N)NC[C@H](Cc1ccccc1)N(C)C (stereo not given in full)  Mu-type opioid receptor (Homo sapiens)          Activity            %            -1.3
1  CC(Cc1ccc[nH]1)N/C(=N\C#N)NC[C@H](Cc1ccccc1)N(C)C (stereo not given in full)  Mu-type opioid receptor (Homo sapiens)          Activity            %              -1

Item: `CN(C)[C@H](CN/C(=N/C#N)NCCc1cccc(F)c1)Cc1ccccc1` | Activity: -0.7

Item: `COc1ccc(CN/C(=N\C#N)NC[C@H](Cc2ccc(O)cc2)N(C)C)cc1` | Activity: -1

Item: CC(Cc1cccs1)N/C(=N\C#N)NC[C@H](Cc1ccccc1)N(C)C (stereo not given in full) | Activity: -0.9
